Hi there, I'd appreciate the recorded Cumulative food intake reduction at 30 nmol/kg (% reduction compared to vehicle)(Day11) for every entry that follows.
PROCEDURE_TEXT: Body weight and food intake in C57BL/6 mice, fusion protein conjugates, 30 nmol/kg daily 10 days
Format: in vivo
Numbers only, in %.

Below, 3 molecules whose answers are already recorded.
MOLECULE: MLC086: fusion polypeptide SEQ ID NO: 377 conjugated with Moiety C at 37C of Linker (conjugate, Moiety C conjugated at linker Cys37) HGEGTFTSDVSSYLEEQAAKEFIAWLVRGGGGQEPGAQPGQEPGAQPGQEPGAQPGQEPGAQPGQEPCQAPGQEPGAQPGAQPGAQPGAQPGAQPGAQPGAQPGAQPGAQPARQGDHCPLGPGRCCRLHTVRASLEDLGWADWVLSPREVQVTMCIGACPSQFRAANLHAQIKTSLHRLKPDTVPAPCCVPASYNPMVLIQKTDTGVSLQTYDDLLAKDCHCI
MEAS_VALUE: 34.8

MOLECULE: MLC087: fusion polypeptide SEQ ID NO: 378 conjugated with Moiety B at 41C of Linker (conjugate, Moiety B conjugated at linker Cys41) HGEGTFTSDVSSYLEEQAAKEFIAWLVRGGGGAQPGAQPGAQPGAQPGAQPGAQPGAQPGAQPGQEPGAQPCQEPGAQPGQEPGAQPGQEPGAQPGQEPGAQPGQEPGAQPARQGDHCPLGPGRCCRLHTVRASLEDLGWADWVLSPREVQVTMCIGACPSQFRAANLHAQIKTSLHRLKPDTVPAPCCVPASYNPMVLIQKTDTGVSLQTYDDLLAKDCHCI
MEAS_VALUE: 31.8

MOLECULE: MLC047: fusion polypeptide SEQ ID NO: 330 conjugated with Moiety A at 40K of linker (conjugate) HGEGTFTSDVSSYLEEQAAREFIAWLVRGGGGQEPGAQPGQEPGAQPGQEPGAQPGQEPGAQPGQEPGAQKGQEPGAQPGAQPGAQPGAQPGAQPGAQPGAQPGAQPGAQPARQGDHCPLGPGRCCRLHTVRASLEDLGWADWVLSPREVQVTMCIGACPSQFRAANLHAQIKTSLHRLRPDTVPAPCCVPASYNPMVLIQRTDTGVSLQTYDDLLARDCHCI
MEAS_VALUE: 51.2

For the molecule shown here, MLC091: fusion polypeptide SEQ ID NO: 380 conjugated with Moiety B at 35C of Linker (conjugate, Moiety B conjugated at linker Cys35) HGEGTFTSDVSSYLEEQAAKEFIAWLVRGGGGAQPGAQPGAQPGAQPGAQPGAQPGAQPGAQPGQCPGAQPGQEPGAQPGQEPGAQPGQEPGAQPGQEPGAQPGQEPGAQPARQGDHCPLGPGRCCRLHTVRASLEDLGWADWVLSPREVQVTMCIGACPSQFRAANLHAQIKTSLHRLKPDTVPAPCCVPASYNPMVLIQKTDTGVSLQTYDDLLAKDCHCI , give the reported Cumulative food intake reduction at 30 nmol/kg (% reduction compared to vehicle)(Day11). 38.1
